# ASSAY_TARGET: PI3-Kα (Mus musculus (Mouse))
# Sequence (P42337 whole entry, the tested form may be a part): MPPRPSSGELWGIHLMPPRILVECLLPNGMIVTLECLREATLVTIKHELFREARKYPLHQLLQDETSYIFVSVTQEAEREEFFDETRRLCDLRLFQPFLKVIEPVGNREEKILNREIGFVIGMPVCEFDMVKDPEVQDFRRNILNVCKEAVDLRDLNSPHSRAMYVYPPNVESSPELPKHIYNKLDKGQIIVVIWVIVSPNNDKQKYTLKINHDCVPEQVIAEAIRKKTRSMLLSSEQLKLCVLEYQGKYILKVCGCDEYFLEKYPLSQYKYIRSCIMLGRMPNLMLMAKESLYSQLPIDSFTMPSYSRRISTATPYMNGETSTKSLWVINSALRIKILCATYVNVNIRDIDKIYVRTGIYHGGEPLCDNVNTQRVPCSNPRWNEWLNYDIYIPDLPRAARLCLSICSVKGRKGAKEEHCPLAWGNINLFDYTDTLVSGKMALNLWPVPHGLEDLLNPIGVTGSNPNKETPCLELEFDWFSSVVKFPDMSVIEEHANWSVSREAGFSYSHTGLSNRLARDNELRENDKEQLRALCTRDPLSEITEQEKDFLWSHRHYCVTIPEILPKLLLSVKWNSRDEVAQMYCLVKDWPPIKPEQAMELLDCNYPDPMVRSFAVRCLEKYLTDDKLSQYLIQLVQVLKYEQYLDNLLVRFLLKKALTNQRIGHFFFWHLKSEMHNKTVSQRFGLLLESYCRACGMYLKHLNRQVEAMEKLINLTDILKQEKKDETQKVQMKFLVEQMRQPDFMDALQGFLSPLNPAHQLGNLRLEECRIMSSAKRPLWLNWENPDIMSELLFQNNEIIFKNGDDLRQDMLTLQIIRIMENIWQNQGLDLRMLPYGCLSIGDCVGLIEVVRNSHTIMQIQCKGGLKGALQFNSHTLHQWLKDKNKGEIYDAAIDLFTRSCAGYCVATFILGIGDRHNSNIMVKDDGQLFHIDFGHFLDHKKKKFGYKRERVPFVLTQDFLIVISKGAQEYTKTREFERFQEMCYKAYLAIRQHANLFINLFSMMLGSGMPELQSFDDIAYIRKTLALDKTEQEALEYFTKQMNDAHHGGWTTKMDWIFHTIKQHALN
# Sequence (P26450 whole entry partner, the tested form may be a part): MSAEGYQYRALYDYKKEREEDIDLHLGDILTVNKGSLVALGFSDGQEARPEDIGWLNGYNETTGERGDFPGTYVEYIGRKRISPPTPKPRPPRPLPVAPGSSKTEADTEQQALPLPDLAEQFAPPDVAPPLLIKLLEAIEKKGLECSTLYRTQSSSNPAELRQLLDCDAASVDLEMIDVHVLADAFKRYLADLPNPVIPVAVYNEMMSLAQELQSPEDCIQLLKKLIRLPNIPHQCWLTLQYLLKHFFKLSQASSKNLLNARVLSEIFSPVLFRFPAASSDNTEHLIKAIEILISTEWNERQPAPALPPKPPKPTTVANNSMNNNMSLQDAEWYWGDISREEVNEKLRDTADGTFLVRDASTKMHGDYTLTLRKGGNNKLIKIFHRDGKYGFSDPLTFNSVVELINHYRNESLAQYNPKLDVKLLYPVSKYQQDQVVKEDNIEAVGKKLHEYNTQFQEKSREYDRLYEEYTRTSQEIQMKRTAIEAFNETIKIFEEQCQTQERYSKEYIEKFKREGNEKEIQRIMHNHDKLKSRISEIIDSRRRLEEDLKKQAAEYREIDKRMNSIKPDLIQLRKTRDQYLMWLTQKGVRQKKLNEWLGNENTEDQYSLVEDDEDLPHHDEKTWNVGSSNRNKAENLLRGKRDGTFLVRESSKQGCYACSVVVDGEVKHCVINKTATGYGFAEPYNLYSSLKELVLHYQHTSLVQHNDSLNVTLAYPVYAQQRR
# TEST_DETAILS: PI3-Kα biochemical assay (in vitro kinase assay, fluorescence polarization);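 also: Insect-cell-expressed mouse p110/p85 complex converting PI(4,5)P2, product PI(3,4,5)P3 detected by displacing TAMRA-tagged PI(3,4,5)P3 from Grip1 PH domain, lower polarization means more product, room temperature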
# ASSAY_CONDITIONS: Ki calculated from IC50, [ATP]=30 uM, Km=25 uM
In this section we review reported PI3Ka Ki values for a set of compounds.

>  <SMILES_TEXT>
COc1ncc(-c2ccc3ncc4c(c3n2)n(C2CCN(C(C)=O)CC2)c(=O)n4C)cn1

>  <PI3Ka Ki, nM>
3.87

$$$$
>  <SMILES_TEXT>
CN(C)c1ccc(-c2ccc3ncc4c(c3n2)n(C2CCOCC2)c(=O)n4C)cn1

>  <PI3Ka Ki, nM>
0.298

$$$$
>  <SMILES_TEXT>
CC(=O)N1CCC(n2c(=O)n(C)c3cnc4ccc(-c5ccc(N(C)C)nc5)nc4c32)CC1

>  <PI3Ka Ki, nM>
0.391

$$$$
>  <SMILES_TEXT>
COc1ccc(-c2ccc3ncc4[nH]c(=O)n(-c5ccc(C(C)(C)C#N)cc5)c4c3n2)cn1

>  <PI3Ka Ki, nM>
1.86

$$$$
>  <SMILES_TEXT>
COc1ncc(-c2ccc3ncc4c(c3n2)n(C2CCN(C(=O)CN(C)C)CC2)c(=O)n4C)cn1

>  <PI3Ka Ki, nM>
28.7

$$$$
>  <SMILES_TEXT>
COc1ncc(-c2ccc3ncc4c(c3n2)n(C2CCN(C(=O)[C@H](C)O)CC2)c(=O)n4C)cn1

>  <PI3Ka Ki, nM>
2.59

$$$$
>  <SMILES_TEXT>
C[C@@H](O)C(=O)N1CCC(n2c(=O)n(C)c3cnc4ccc(-c5ccc(N(C)C)nc5)nc4c32)CC1

>  <PI3Ka Ki, nM>
0.397

$$$$

###

A set of compounds tested on mTOR (Homo sapiens (Human)), with measured Ki:

>  <COMPOUND>
COc1cccc(-c2ccc3ncc4c(c3n2)n(C2CCN(C(=O)CO)CC2)c(=O)n4C)c1 [Compound 276]

>  <Ki [nM]>
10.2

$$$$
>  <COMPOUND>
CN(C)c1ccc(-c2ccc3ncc4c(c3n2)n(C2CCN(CCO)CC2)c(=O)n4C)cn1 [Compound 198]

>  <Ki [nM]>
3.52

$$$$
>  <COMPOUND>
COc1ccc(-c2ccc3ncc4c(c3n2)n(C2CCOCC2)c(=O)n4C)cn1 [Compound 140]

>  <Ki [nM]>
7.74

$$$$
>  <COMPOUND>
COc1ccc(-c2ccc3ncc4c(c3n2)n(CCN2CCNCC2)c(=O)n4C)cn1 [Compound 266]

>  <Ki [nM]>
273

$$$$
>  <COMPOUND>
COc1ncc(-c2ccc3ncc4c(c3n2)n([C@H]2CC[C@H](O)CC2)c(=O)n4C)cn1 [Compound 169]

>  <Ki [nM]>
6.39

$$$$
>  <COMPOUND>
CN(C)CC(=O)N1CCC(n2c(=O)n(C)c3cnc4ccc(-c5cnc6ccccc6c5)nc4c32)CC1 [Compound 126]

>  <Ki [nM]>
3.42

$$$$
>  <COMPOUND>
Cn1c(=O)n(C2CCOCC2)c2c3nc(-c4cn[nH]c4)ccc3ncc21 [Compound 199]

>  <Ki [nM]>
1.03

$$$$
>  <COMPOUND>
Cn1cc(-c2ccc3ncc4[nH]c(=O)n(-c5ccc(C(C)(C)C#N)cc5)c4c3n2)cn1 [Compound 113]

>  <Ki [nM]>
15.5

$$$$
>  <COMPOUND>
COc1ccc(-c2ccc3ncc4c(c3n2)n(CCN2CCOCC2)c(=O)n4C)cn1 [Compound 269]

>  <Ki [nM]>
27.8

$$$$
>  <COMPOUND>
CCC(=O)N1CCC(n2c(=O)n(C)c3cnc4ccc(-c5cnc6ccccc6c5)nc4c32)CC1 [Compound 121]

>  <Ki [nM]>
7.9

$$$$

###

Reported log10 of Ki for target or system PI3-Kα (Mus musculus (Mouse)), by entry.
READOUT_LABEL: log10 of Ki (log10 of the value in nM)

>  <COMPOUND>
CC(=O)N1CCC(n2c(=O)n(C)c3cnc4ccc(-c5cccc6ncccc56)nc4c32)CC1 [Compound 249]

>  <ASSAY_TARGET>
PI3-Kα (Mus musculus (Mouse))

>  <log10 of Ki>
0.65

$$$$
>  <COMPOUND>
Cn1c(=O)n([C@H]2CC[C@H](O)CC2)c2c3nc(-c4cnn(CCO)c4)ccc3ncc21 [Compound 164]

>  <ASSAY_TARGET>
PI3-Kα (Mus musculus (Mouse))

>  <log10 of Ki>
1.21

$$$$
>  <COMPOUND>
Cc1ccc(-c2ccc3ncc4c(c3n2)n(C2CCN(C(N)=O)CC2)c(=O)n4C)cn1 [Compound 167]

>  <ASSAY_TARGET>
PI3-Kα (Mus musculus (Mouse))

>  <log10 of Ki>
0.29

$$$$
>  <COMPOUND>
COc1ncc(-c2ccc3ncc4c(c3n2)n(C2CCN(C(=O)CO)CC2)c(=O)n4C)cn1 [Compound 189]

>  <ASSAY_TARGET>
PI3-Kα (Mus musculus (Mouse))

>  <log10 of Ki>
0.25

$$$$
>  <COMPOUND>
Cc1ccc(-c2ccc3ncc4c(c3n2)n(C2CCNCC2)c(=O)n4C)cn1 [Compound 177]

>  <ASSAY_TARGET>
PI3-Kα (Mus musculus (Mouse))

>  <log10 of Ki>
0.39

$$$$
>  <COMPOUND>
COc1ncc(-c2ccc3ncc4c(c3n2)n(C2CCN(CC(N)=O)CC2)c(=O)n4C)cn1 [Compound 190]

>  <ASSAY_TARGET>
PI3-Kα (Mus musculus (Mouse))

>  <log10 of Ki>
0.70

$$$$
>  <COMPOUND>
Cn1c(=O)n(C2CCNCC2)c2c3nc(-c4cnc5ccccc5c4)ccc3ncc21 [Compound 118]

>  <ASSAY_TARGET>
PI3-Kα (Mus musculus (Mouse))

>  <log10 of Ki>
0.32

$$$$
>  <COMPOUND>
Cn1c(=O)n(-c2ccc(C(C)(C)C#N)cc2)c2c3nc(-c4cnc5ccccc5c4)ccc3ncc21 [Compound 102]

>  <ASSAY_TARGET>
PI3-Kα (Mus musculus (Mouse))

>  <log10 of Ki>
-0.12

$$$$
>  <COMPOUND>
CN[C@H]1CC[C@H](n2c(=O)n(C)c3cnc4ccc(-c5cnc6ccccc6c5)nc4c32)CC1 [Compound 193]

>  <ASSAY_TARGET>
PI3-Kα (Mus musculus (Mouse))

>  <log10 of Ki>
0.21

$$$$
>  <COMPOUND>
CNC(=O)N1CCC(n2c(=O)n(C)c3cnc4ccc(-c5ccc(C)nc5)nc4c32)CC1 [Compound 181]

>  <ASSAY_TARGET>
PI3-Kα (Mus musculus (Mouse))

>  <log10 of Ki>
0.51

$$$$

###

pKi: −log10 of the molar value.
Here's what we have: pKi numbers for UniProt:P42345.

>  <SMILES_TEXT>
C[C@H](O)C(=O)N1CCC(n2c(=O)n(C)c3cnc4ccc(-c5ccnc6[nH]ncc56)nc4c32)CC1

>  <ASSAY_TARGET>
UniProt:P42345

>  <pKi>
8.77

$$$$
>  <SMILES_TEXT>
COc1ncc(-c2ccc3ncc4c(c3n2)n(-c2ccc(C(C)(C)C#N)cc2)c(=O)n4C)cc1F

>  <ASSAY_TARGET>
UniProt:P42345

>  <pKi>
7.58

$$$$
>  <SMILES_TEXT>
Cn1c(=O)n([C@H]2CC[C@H](O)CC2)c2c3nc(-c4cnc5ccccc5c4)ccc3ncc21

>  <ASSAY_TARGET>
UniProt:P42345

>  <pKi>
8.42

$$$$
>  <SMILES_TEXT>
CN(C)c1ccc(-c2ccc3ncc4c(c3n2)n(C2CCNCC2)c(=O)n4C)cn1

>  <ASSAY_TARGET>
UniProt:P42345

>  <pKi>
8.08

$$$$

###

Reported Ki for target or system UniProtKB P42345, by entry.

>  <SMILES_TEXT>
CC(C)OC(=O)N1CCC(n2c(=O)n(C)c3cnc4ccc(-c5cnc6ccccc6c5)nc4c32)CC1

>  <ASSAY_TARGET>
UniProtKB P42345

>  <Ki>
9.72 nM

$$$$
>  <SMILES_TEXT>
COc1ccc(-c2ccc3ncc4c(c3n2)n([C@H](C)CO)c(=O)n4C)cn1

>  <ASSAY_TARGET>
UniProtKB P42345

>  <Ki>
23.8 nM

$$$$
>  <SMILES_TEXT>
CN(C)c1ccc(-c2ccc3ncc4c(c3n2)n(C2CCOCC2)c(=O)n4C)cn1

>  <ASSAY_TARGET>
UniProtKB P42345

>  <Ki>
12.7 nM

$$$$
>  <SMILES_TEXT>
CN(C)c1ccc(-c2ccc3ncc4c(c3n2)n(C2CCN(CC(F)(F)F)CC2)c(=O)n4C)cn1

>  <ASSAY_TARGET>
UniProtKB P42345

>  <Ki>
12.5 nM

$$$$
>  <SMILES_TEXT>
Cn1c(=O)n([C@H]2CC[C@H](O)CC2)c2c3nc(-c4cnc(N)nc4)ccc3ncc21

>  <ASSAY_TARGET>
UniProtKB P42345

>  <Ki>
0.33 nM

$$$$
>  <SMILES_TEXT>
Cc1ccc(-c2ccc3ncc4c(c3n2)n([C@H]2CC[C@H](OCCO)CC2)c(=O)n4C)cn1

>  <ASSAY_TARGET>
UniProtKB P42345

>  <Ki>
11.4 nM

$$$$
>  <SMILES_TEXT>
CC(=O)N1CCC(n2c(=O)n(C)c3cnc4ccc(-c5ccc(N(C)C)nc5)nc4c32)CC1

>  <ASSAY_TARGET>
UniProtKB P42345

>  <Ki>
1.72 nM

$$$$
>  <SMILES_TEXT>
Cn1c(=O)n([C@H]2CC[C@H](OCCO)CC2)c2c3nc(-c4cnc5ccccc5c4)ccc3ncc21

>  <ASSAY_TARGET>
UniProtKB P42345

>  <Ki>
10.1 nM

$$$$
>  <SMILES_TEXT>
CC(=O)N1CCC(n2c(=O)n(C)c3cnc4ccc(-c5ccc(N)nc5)nc4c32)CC1

>  <ASSAY_TARGET>
UniProtKB P42345

>  <Ki>
0.299 nM

$$$$
>  <SMILES_TEXT>
Cc1ccc(-c2ccc3ncc4c(c3n2)n(C2CCOCC2)c(=O)n4C)cn1

>  <ASSAY_TARGET>
UniProtKB P42345

>  <Ki>
1.72 nM

$$$$
>  <SMILES_TEXT>
CNC(=O)N1CCC(n2c(=O)n(C)c3cnc4ccc(-c5cnn(C)c5)nc4c32)CC1

>  <ASSAY_TARGET>
UniProtKB P42345

>  <Ki>
18.7 nM

$$$$
